# TESTED SYSTEM: Delta-type opioid receptor (Mus musculus)
# Sequence (P32300 whole entry): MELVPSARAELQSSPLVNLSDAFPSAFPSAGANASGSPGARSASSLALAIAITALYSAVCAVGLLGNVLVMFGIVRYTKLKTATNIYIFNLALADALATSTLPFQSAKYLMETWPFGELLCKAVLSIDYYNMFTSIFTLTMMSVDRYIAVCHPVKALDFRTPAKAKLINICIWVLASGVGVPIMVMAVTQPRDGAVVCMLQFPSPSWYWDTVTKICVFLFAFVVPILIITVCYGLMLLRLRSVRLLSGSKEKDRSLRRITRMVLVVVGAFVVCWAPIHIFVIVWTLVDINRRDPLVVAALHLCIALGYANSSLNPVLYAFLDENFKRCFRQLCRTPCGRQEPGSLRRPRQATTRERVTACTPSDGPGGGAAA
In plain terms, low IC50, meaning strictly below 0.5 nM, gives TRUE, and everything else gives FALSE.

{"MOL": "C[C@@H]1CN([C@@H](c2cccc(F)c2)c2ccc3c(c2)CN(CCC(=O)O)C3)[C@@H](C)CN1Cc1ccccc1", "CLASS": "FALSE"}
{"MOL": "COc1cccc([C@@H](c2ccc3c(c2)CN(CCC(=O)O)CC3)N2C[C@@H](C)N(Cc3ccccc3)C[C@@H]2C)c1", "CLASS": "FALSE"}
{"MOL": "COc1cccc([C@@H](c2ccc3c(c2)CN(CC(=O)O)C3)N2C[C@@H](C)N(Cc3ccccc3)C[C@@H]2C)c1", "CLASS": "FALSE"}

Does `C[C@@H]1CN([C@H](c2ccc(CCC(=O)O)cc2)c2cccc(O)c2)[C@@H](C)CN1Cc1ccccc1` have IC50 strictly under 0.5 nM?
TRUE

And for `COc1cccc([C@@H](c2ccc3c(c2)CN(CC(=O)O)CC3)N2C[C@@H](C)N(Cc3ccccc3)C[C@@H]2C)c1` ?
FALSE

And for `C[C@@H]1CN([C@@H](c2cccc(F)c2)c2ccc3c(c2)CN(CCC(=O)O)CC3)[C@@H](C)CN1Cc1ccccc1` ?
FALSE

And for `C=CCN1C[C@H](C)N([C@H](c2ccc(C(=O)N(CC)CC)cc2)c2cccc(O)c2)C[C@H]1C` ?
FALSE

And for `C[C@@H]1CN([C@@H](c2cccc(F)c2)c2ccc3c(c2)CN(C(=O)CC(=O)O)CC3)[C@@H](C)CN1Cc1ccccc1` ?
FALSE

All values here come from ChEMBL document CHEMBL1138105.
